- PROTOCOL: yeast display, Sf9 membrane polyspecificity reagent, FACS + sequencing; frameworks hold sequencing errors
READOUT_LABEL: polyreactivity (PSR sort gate)

Guide cases for polyreactivity (PSR sort gate), answers given:
>  <SEQUENCE_ENTRY>
QVQLVESGGCLVQAGGSLRLTCAASGFIFPYYAMGWYRQAPGKERELVAGITGADSTYYADSVKGRFTISRDNAKNTVYLQMNSLKPEDTAVYYCARKRYSLSRTYNYGYWGQGTQVTVSS

>  <polyreactivity (PSR sort gate)>
high polyreactivity

$$$$
>  <SEQUENCE_ENTRY>
QVQLVESGGGLVQAGGSLRLSCAASGSTFYYYAMGWYRQAPGKERELVAAITIGGSTNYADSVKGRFTISRDNAKNTVYLQMNSLKPVDTAVYYCAADYRITYARDFDYWGQGTQVTVSS

>  <polyreactivity (PSR sort gate)>
low polyreactivity

$$$$
>  <SEQUENCE_ENTRY>
QVQLVESGGGLVQAGGSLRLSCAASVFTFTHYAMGWYRQSAGKERELVAAISTSGVSTYYSDSVKGRFTISRDNAKNTVYLQMNSLKPEDTAVYYCAARRDGWFQWGYYYWGQGTQVTVSS

>  <polyreactivity (PSR sort gate)>
low polyreactivity

$$$$
>  <SEQUENCE_ENTRY>
QVQLVESGGGLVQAGGSLRLSCAASGSIFNRYTMGWYRQAPGKETELVAAISRGDTTYYADSVKGRFTISRDNAKNTVYLEMNSLKPEDTAVYYWAKAYDTTLTYNYWGQVTQVTVSS

>  <polyreactivity (PSR sort gate)>
low polyreactivity

$$$$
>  <SEQUENCE_ENTRY>
QVQLVESGGGLVQAGGSLRLSCAASGSIFNPYAMGWYRQAPGKERELVAAISSTGSTYYADSVKGRFTISRDNAKNTVYLQMNSLKPEDTAVYYCAADWYWYWFSTYDYWGQGTQVTVSS

>  <polyreactivity (PSR sort gate)>
low polyreactivity

$$$$
>  <SEQUENCE_ENTRY>
QVQLVESGGGLVQAGGSLRLSCAASGYTFPFYTMGWYRQAPGKERELVAAINSGGSTYYADSVKGRFTISRDNAKNTVYLQMNSLKPEDNAVYYCAVEGGFRVRYQAQYRYYYCGQGTQVTVSS

>  <polyreactivity (PSR sort gate)>
high polyreactivity

$$$$
>  <SEQUENCE_ENTRY>
QVQLVESGGGLVQAGGSLRLSCAAYGRIFVFYDMGWYRQAPGKDRELVATISFRGGSTYYADSVKGRFTISRDNAKNTVYLQMNCLKPEDTAVYYCAKENKRGYSTSGYYYWGQGTQVTVSS

>  <polyreactivity (PSR sort gate)>
low polyreactivity

$$$$
>  <SEQUENCE_ENTRY>
QVQLVESGGGLVQAGGSLRLSCAASGRTFYRYAMGWYRQAPGKERELVATISSSGRTYYADSVKGRFTISRDNAKNTVYLQMNSLKPEDTAVYYCRFTIKHGSWGQGTQVTVSS

>  <polyreactivity (PSR sort gate)>
high polyreactivity

$$$$

**Q:** Supply recorded polyreactivity (PSR sort gate) for `QVQLVESGGGLVQAGGSLRLSSAASGIFRWNTKGWYRQAPRKERELVATISWGGGTTYYADSVKGRFTISRDNAKNTVYLQMNSLKPEDTAVYYCAKVYAVRIGMRYSYWGHGTQVTVSS` here.
**A:** low polyreactivity

**Q:** Supply recorded polyreactivity (PSR sort gate) for `QVQLVESGGGLVQAGGSLRLSCAASGSTFRVYDMGWYRQAPGKERELVASLSYSVGSTYYADSVKGRFTISRDNAKNTVYLQMNSLKPEDTAVYYCAARPSYQPSSLARYDYWGQGTQVTVSS` here.
**A:** low polyreactivity

**Q:** Supply recorded polyreactivity (PSR sort gate) for `QVQLVESGGGLVQAGGSLRLSCAASGITFVGNDMGWYRQAPGKERELVATISSSGTRTYYADSVKGRFTISRDNAKNTVYLLMNSLKPEDTAVYYCAARWRSYITYWFDYWGQGTQVTVSS` here.
**A:** low polyreactivity
